# target under test: MAGL (Mus musculus)
# Construct: Proteomes (mouse brain membrane fraction or cell lysates); from tissue; host or cells: mouse brain membrane fraction or cell lysates
# Sequence (O35678 1-303): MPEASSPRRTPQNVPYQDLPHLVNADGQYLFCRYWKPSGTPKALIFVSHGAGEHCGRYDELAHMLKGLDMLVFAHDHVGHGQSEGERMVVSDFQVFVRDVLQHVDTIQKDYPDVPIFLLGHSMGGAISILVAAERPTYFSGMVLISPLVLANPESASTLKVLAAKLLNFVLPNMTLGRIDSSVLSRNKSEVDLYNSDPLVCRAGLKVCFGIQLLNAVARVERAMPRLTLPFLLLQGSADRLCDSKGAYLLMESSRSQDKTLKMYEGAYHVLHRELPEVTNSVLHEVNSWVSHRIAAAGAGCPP
# assay: In vitro competitive activity-based protein profiling (mouse), MAGL
# Format: biochemical
# study conditions: 1 μM inhibitor, mouse brain membrane fraction or cell lysates; read-out: MAGL % inh. 1 μM (mouse)
# Experimental: In Vitro Competitive Activity-Based Protein Profiling (Mouse). Proteomes (mouse brain membrane fraction or cell lysates) (50 μL, 1.0 mg/mL total protein concentration) were preincubated with varying concentrations of inhibitors at 37° C. […] Following gel imaging, serine hydrolase activity was determined by measuring fluorescent intensity of gel bands corresponding to MAGL and ABHD6 using ImageJ 1.49 k software. […]
test readout: inhibition at 1 µM

Please give the measured inhibition at 1 µM for this compound: N#Cc1ccc(CN2CCN(C(=O)OC(C(F)(F)F)C(F)(F)F)CC2)c(N2CCC(C(=O)O)CC2)c1 [Example 69]
≥ 75%

Please give the measured inhibition at 1 µM for this compound: O=C(O)C1CCN(c2c(CN3CCN(C(=O)OC(C(F)(F)F)C(F)(F)F)CC3)cccc2C(F)(F)F)CC1 [Example 74]
≥ 75%

Please give the measured inhibition at 1 µM for this compound: O=C(O)CN1CCC2(CCN(c3cc(C(F)(F)F)ccc3CN3CCN(C(=O)OC(C(F)(F)F)C(F)(F)F)CC3)CC2)C1 [Example 18]
≥ 75%

Please give the measured inhibition at 1 µM for this compound: O=C(O)C1CCN(c2cc(C(F)F)ccc2CN2CCN(C(=O)OC(C(F)(F)F)C(F)(F)F)CC2)CC1 [Example 72]
≥ 75%

Please give the measured inhibition at 1 µM for this compound: O=C(OC(C(F)(F)F)C(F)(F)F)N1CCN(Cc2ccc(C(F)F)cc2C2(C(=O)O)CCCC2)CC1 [Example 27]
≥ 75%

###

# target under test: ABHD6 (Homo sapiens)
# Construct: Proteomes (human prefrontal cortex or cell membrane fractions); endogenous in cells; human prefrontal cortex
# Sequence (Q9BV23 1-337): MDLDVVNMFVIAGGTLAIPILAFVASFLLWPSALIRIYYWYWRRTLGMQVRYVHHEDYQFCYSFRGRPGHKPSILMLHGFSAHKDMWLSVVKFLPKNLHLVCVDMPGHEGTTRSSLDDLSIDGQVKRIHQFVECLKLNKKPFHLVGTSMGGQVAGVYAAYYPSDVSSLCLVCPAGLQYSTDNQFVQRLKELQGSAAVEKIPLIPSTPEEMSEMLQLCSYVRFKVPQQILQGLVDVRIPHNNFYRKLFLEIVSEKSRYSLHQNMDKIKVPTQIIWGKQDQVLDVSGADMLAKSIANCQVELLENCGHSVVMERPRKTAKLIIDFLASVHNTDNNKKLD
# assay: In vitro competitive activity-based protein profiling (human), ABHD6
# Assay type: biochemical
# study conditions: human PC3
# Protocol: In Vitro Competitive Activity-Based Protein Profiling (Human). Proteomes (human prefrontal cortex or cell membrane fractions) (50 μL, 1.0-2.0 mg/mL total protein concentration) were preincubated with varying concentrations of inhibitors at 37° C. […] Following gel imaging, serine hydrolase activity was determined by measuring fluorescent intensity of gel bands corresponding to MAGL and ABHD6 using ImageJ 1.49 k software.
test readout: IC50

Example entries begin here.
Short answer please: IC50, ABHD6 (Homo sapiens), entry Cc1ccc(CN2CCN(C(=O)OC(C(F)(F)F)C(F)(F)F)CC2)c(N2CCC(C(=O)O)CC2)c1F [Example 59]
1 to 10 µM

Short answer please: IC50, ABHD6 (Homo sapiens), entry O=C(O)CN1CC2(CCN(c3cc(C(F)(F)F)ccc3CN3CCN(C(=O)OC(C(F)(F)F)C(F)(F)F)CC3)CC2)C1 [Example 21]
1 to 10 µM

Short answer please: IC50, ABHD6 (Homo sapiens), entry O=C(OC(C(F)(F)F)C(F)(F)F)N1CCN(Cc2ccc(C(F)(F)F)c(C3(C(=O)O)CCCC3)c2)CC1 [Example 37]
0.1 to 1 µM

New cases:
Short answer please: IC50, ABHD6 (Homo sapiens), entry O=C(O)C1CCN(c2c(CN3CCN(C(=O)OC(C(F)(F)F)C(F)(F)F)CC3)ccc(Cl)c2F)CC1 [Example 62]
1 to 10 µM
